GI50 reference
Tested on: SK-MEL-28 melanoma
EXPERIMENT_DESCRIPTION: NCI tumour cell line growth inhibition, 48 h
RESULT_TYPE: GI50

COMPOUND	OBS_VALUE
CC(=O)Oc1ccc(C2=Cc3ccc(OC(C)=O)cc3OC2C)cc1 (stereo not given)	10.3 µM
Cc1cccc(Cn2cc(CO)c3cnccc32)c1	> 100 µM
CCCCCC(=O)O[C@]1(C(C)=O)CCC2C3CCC4=CC(=O)CC[C@]4(C)C3CC[C@@]21C (stereo not given in full)	2.49 µM
CC(=O)NC1C(O[C@H]2C[C@H]3[C@@H]4CC=C5C[C@@H](O)CC[C@]5(C)[C@H]4CC[C@]3(C)[C@H]2[C@H](C)C(=O)CCC(C)C)OCC(O)C1O (stereo not given in full)	0.928 µM
CC(=O)Oc1c(C(=O)[O-])cc(C(C)C)cc1C(C)C.CC(=O)Oc1c(C(=O)[O-])cc(C(C)C)cc1C(C)C.CC(=O)Oc1c(C(=O)[O-])cc(C(C)C)cc1C(C)C.CC(=O)Oc1c(C(=O)[O-])cc(C(C)C)cc1C(C)C.[Cu+2].[Cu+2]	17.9 µM
